Recorded values, source ChEMBL document CHEMBL4145565.

experiment: Oral bioavailability in Wistar rat; format: ADME, organism-based; conditions: in vivo
Measurement type: bioavailability (%)
Numbers only, in %.

bioavailability reading for O=c1c(-n2ccnn2)c[nH]n1-c1cc(N2CCOCC2)ncn1 [MOLIDUSTAT] : 34

###

molecular target: Prolyl hydroxylase EGLN3 (Homo sapiens, UniProt Q9H6Z9); experiment: Inhibition of His tagged MBP-PHD3 (1 to 230 residues) (unknown origin) expressed in Escherichia coli using Cy5-labelled HIF2alpha as substrate preincubated for 3 mins followed by substrate addition nmeasured after 30 mins by LANCE assay
Sequence (Q9H6Z9 whole entry, the tested form may be a part): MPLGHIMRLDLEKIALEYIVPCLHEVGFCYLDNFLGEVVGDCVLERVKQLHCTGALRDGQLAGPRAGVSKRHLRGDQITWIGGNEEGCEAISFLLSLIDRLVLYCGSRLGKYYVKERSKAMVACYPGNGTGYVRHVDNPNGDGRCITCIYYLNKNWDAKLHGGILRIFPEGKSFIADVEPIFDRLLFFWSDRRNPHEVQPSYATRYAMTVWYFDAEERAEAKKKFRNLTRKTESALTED
pIC50: −log10 of the molar value.
So I've got a bunch of molecules here, and I need their pIC50 values.

COc1ccc(-n2c(=O)[nH]c3cc(C(=O)NCc4ccc(Cl)cc4)sc3c2=O)nc1OC; 7.00 to 9.00

# input for lookup
Record "COc1ccc(-n2c(=S)[nH]c3cc(C(=O)NCc4ccc(Cl)cc4)sc3c2=O)nc1OC" . Reported pIC50: 7.00 to 9.00

###

biological target: Prolyl hydroxylase EGLN2 (Homo sapiens); experiment: Inhibition of PHD1 (unknown origin)
Sequence (Q96KS0 whole entry): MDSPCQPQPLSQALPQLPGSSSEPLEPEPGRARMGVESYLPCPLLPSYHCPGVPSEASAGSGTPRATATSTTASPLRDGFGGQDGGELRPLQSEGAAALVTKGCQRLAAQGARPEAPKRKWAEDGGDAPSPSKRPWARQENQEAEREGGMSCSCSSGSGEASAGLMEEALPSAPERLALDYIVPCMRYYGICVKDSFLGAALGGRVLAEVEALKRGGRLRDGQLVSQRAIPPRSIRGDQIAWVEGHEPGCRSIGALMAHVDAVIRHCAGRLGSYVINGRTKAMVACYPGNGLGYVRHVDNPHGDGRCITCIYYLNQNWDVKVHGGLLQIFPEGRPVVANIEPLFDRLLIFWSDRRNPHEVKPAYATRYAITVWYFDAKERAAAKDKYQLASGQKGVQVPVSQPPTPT
Measurement type: pIC50
Numbers only, as −log10 of the molar value.

get_value(item= "O=C(O)CNC(=O)c1c(O)n(C2CCCCC2)c(=O)n(C2CCCCC2)c1=O" , readout=pIC50) returns 8.46
